- measurement target: HLA-B5101 (Homo sapiens, UniProt P01889, A329T/A93T/A95T/C349S/D138N/D201E/D98Y/E187L/E204Q/E69T/G107R/I218V/K202T/L105A/L119W/N104I/Q94N/R106L/R155S/R180L/S101N/S121T/S35A/S48A/V306I/V36M/Y195H/Y91F)
- experiment notes: Competitive peptide binding assay, CIR-B5101
- study conditions: HMy2.CIR-B5101 cells, reference Cy5-[…], class from inhibition at 5 and 15 μM, flow cytometry MFI; read-out: Binding affinity with HLA-B5101
- Description: Then, competitive peptide binding assays were performed.
pIC50: −log10 of the molar value. Peptide text beside a SMILES is read from it.

{"columns": ["compound", "pIC50"],
 "data": [
  ["CC(C)C[C@H](NC(=O)[C@H](CCC(N)=O)NC(=O)[C@@H](NC(=O)[C@H](CS)NC(=O)[C@H](Cc1ccccc1)NC(=O)[C@H](CO)NC(=O)CNC(=O)[C@H](Cc1ccc(O)cc1)NC(=O)[C@H](CCC(N)=O)NC(=O)[C@@H](N)CC(C)C)[C@@H](C)O)C(=O)O [Epitope Y88] (H-LQYGSFCTQL-OH; N-terminus and C-terminus assumed)", "< 4.82"],
  ["CC[C@H](C)[C@H](NC(=O)[C@H](CC(N)=O)NC(=O)[C@H](CCCCN)NC(=O)[C@H](Cc1ccccc1)NC(=O)[C@@H](NC(=O)[C@@H](N)Cc1ccccc1)C(C)C)C(=O)N[C@@H](CC(=O)O)C(=O)NCC(=O)N[C@@H](Cc1ccc(O)cc1)C(=O)O [Epitope Y172] (H-FVFKNIDGY-OH; N-terminus and C-terminus assumed)", "< 4.82"],
  ["CC[C@H](C)[C@H](NC(=O)[C@@H](NC(=O)[C@H](CC(N)=O)NC(=O)[C@H](CCCNC(=N)N)NC(=O)[C@H](CCCCN)NC(=O)[C@@H](NC(=O)[C@H](Cc1ccc(O)cc1)NC(=O)[C@H](C)NC(=O)[C@@H](N)Cc1ccccc1)[C@@H](C)O)C(C)C)C(=O)O [Epitope Y276] (H-FAYTKRNVI-OH; N-terminus and C-terminus assumed)", "4.82 to 5.30"],
  ["CC(C)C[C@H](NC(=O)[C@H](CC(=O)O)NC(=O)[C@@H](NC(=O)[C@H](CC(=O)O)NC(=O)[C@@H](NC(=O)[C@H](Cc1c[nH]cn1)NC(=O)[C@H](CO)NC(=O)[C@H](CCC(=O)O)NC(=O)[C@H](C)N)C(C)C)[C@@H](C)O)C(=O)O [Epitope Y198] (H-AESHVDTDL-OH; N-terminus and C-terminus assumed)", "< 4.82"],
  ["CC(C)C[C@H](NC(=O)[C@H](Cc1c[nH]cn1)NC(=O)[C@H](Cc1ccccc1)NC(=O)[C@@H](NC(=O)[C@H](CC(=O)O)NC(=O)[C@H](C)NC(=O)[C@H](Cc1ccc(O)cc1)NC(=O)[C@H](CCC(=O)O)NC(=O)[C@@H](N)CCC(N)=O)C(C)C)C(=O)O [Epitope Y71] (H-QEYADVFHL-OH; N-terminus and C-terminus assumed)", "< 4.82"],
  ["CC[C@H](C)[C@H](NC(=O)[C@@H]1CCCN1C(=O)[C@@H]1CCCN1C(=O)[C@@H](NC(=O)[C@H](CCCCN)NC(=O)[C@H](Cc1ccc(O)cc1)NC(=O)[C@@H](NC(=O)[C@H](CCC(N)=O)NC(=O)[C@@H](N)CCCCN)[C@@H](C)CC)[C@@H](C)O)C(=O)O [Epitope Y82] (H-KQIYKTPPI-OH; N-terminus and C-terminus assumed)", "< 4.82"]
]}
